Experiment: Human liver microsomal intrinsic clearance
Type: in vitro ADME
Conditions: human, microsomes
Each item that follows carries a reported HLM CLi.

COc1ccc(CN2C(=O)CC(=O)N(c3ccc(OC)cc3)c3ccccc32)cc1 [Compound 23]	>37 mL/min/g

INPUT: Item CC(C)N(C(=O)CN1C(=O)C(N)C(=O)N(c2ccccc2)c2ccccc21)c1ccccc1 (racemic) [Compound 14] : provide HLM CLi
OUTPUT: <0.4 mL/min/g

INPUT: Query HLM CLi for COc1ccc(CN2C(=O)C(N)C(=O)N(c3ccc(OC)cc3)c3ccccc32)cc1 (stereo not drawn) [Compound 16]
OUTPUT: <0.4 mL/min/g

INPUT: Identify measured HLM CLi associated with O=C(Nc1ccc(F)cc1)NC1C(=O)Nc2ccccc2N(c2ccccc2)C1=O (stereo not drawn) [Compound 3]
OUTPUT: <0.4 mL/min/g

INPUT: Assign HLM CLi to the following record: COc1ccccc1N1C(=O)C(NC(=O)Nc2ccc(C)cc2)C(=O)Nc2ccccc21 (stereo not drawn) [Compound 6]
OUTPUT: <0.4 mL/min/g

INPUT: Read off the recorded HLM CLi for COc1ccc(CN2C(=O)C(N)C(=O)N(c3ccccc3)c3c(F)cccc32)cc1 (stereo not drawn) [Compound 21]
OUTPUT: <0.4 mL/min/g

---

Test: Mouse liver microsomal intrinsic clearance
Type: in vitro ADME
Details: mouse liver microsomes
In this section we review reported MLM CLi values for a set of compounds.
Note: unit mL/min/g is implicit; provide only the numeric part.

Cc1ccc(NC(=O)NC2C(=O)Nc3ccccc3N(C(C)C)C2=O)cc1 (stereo not drawn) [Compound 7]	1.8

Could you now look at the following compound, please?
INPUT: Look up MLM CLi of Cc1ccc(NC(=O)NC2C(=O)Nc3ccccc3N(C3CCOCC3)C2=O)cc1 (stereo not drawn) [Compound 8] and report it.
OUTPUT: 0.7

---

Assay: Mouse liver microsomal intrinsic clearance
Type: in vitro ADME
Conditions: mouse liver microsomes
measured.property: MLM CLi (mL/min/g)
Quick reminder: number only, in mL/min/g, skip the unit.

Examples with answers:
Cc1ccc(NC(=O)NC2CNc3ccccc3N(c3ccccc3)C2=O)cc1 (centres unmarked)	4.0
Cc1ccc(NC(=O)NC2CN(c3ccccc3)c3ccccc3NC2=O)cc1 (centres unmarked)	3.5
COc1ccc(CN2C(=O)C(N)C(=O)N(CC3CC(F)(F)C3)c3ccccc32)cc1 (centres unmarked)	12

INPUT: Please indicate MLM CLi recorded for COc1ccc(N2C(=O)C(NC(=O)Nc3ccc(C)cc3)C(=O)Nc3ccccc32)cc1 (centres unmarked)
OUTPUT: 1.2

INPUT: Give me measured MLM CLi, please, for this compound: COc1ccc(CN2C(=O)C(N)C(=O)N(c3ccc(F)cc3)c3ccccc32)cc1 (centres unmarked)
OUTPUT: 10.6

INPUT: Quick one: give measured MLM CLi for Cc1ccc(NC(=O)NC2C(=O)Nc3ccccc3N(c3ccccc3)C2=O)cc1 (centres unmarked)
OUTPUT: 0.8

INPUT: Name the recorded MLM CLi of the compound listed here: COc1ccc(CN2C(=O)C(N)C(=O)N(c3ccccc3)c3ccccc32)cc1 (centres unmarked)
OUTPUT: 16

---

Experiment: ChromLogD pH7.4 (chromatographic hydrophobicity index), PFI, LLE
Settings: pH 7.4
Reported chromatographic logD values for a set of compounds
Keep it simple and answer with nothing but the number.

Observe how each entry below is paired with its result.
COc1ccc(NC(=O)NC2C(=O)Nc3ccccc3N(c3ccccc3)C2=O)cc1 (stereo not shown)	4
COc1ccc(CN2C(=O)C(N)C(=O)N(c3ccc(OC)nc3)c3ccccc32)cc1 (stereo not shown)	3.8
O=C(Nc1ccc(F)cc1)NC1C(=O)Nc2ccccc2N(c2ccccc2)C1=O (stereo not shown)	4.4

INPUT: Fill in chromatographic logD for record COc1ccc(CN2C(=O)C(N)C(=O)N(c3ccc(F)cc3)c3ccccc32)cc1 (stereo not shown)
OUTPUT: 4.4

---

System: host Vero cell
Assay: Vero host cell toxicity in the intracellular T. cruzi assay
Format: cell-based
Details: Chlorocebus sabaeus, Vero, individual replicate
Description: T. cruzi intracellular potency and rate-of-kill assay (high content imaging) ^1 Silvio X10/7 T. cruzi trypomastigotes were incubated at 37°C 5% CO2 with 1.6×10^7 Vero cells overnight at MOI10 in MEM media supplemented with 10% foetal calf serum (FCS). Extracellular parasites were removed by aspirating cell culture supernatant, and washing Vero monolayer with 10 ml serum-free MEM three times. […]
Recorded EC50 by entry

Below, each entry is followed by its recorded EC50 result.
COc1cccc(N2C(=O)C(NC(=O)Nc3ccc(C)cc3)C(=O)Nc3ccccc32)c1 (stereo not shown) [Compound 5]	> 50.1 µM
COc1ccc(NC(=O)NC2C(=O)Nc3cccc(F)c3N(c3ccccc3)C2=O)cc1 (stereo not shown) [Compound 9]	> 50.1 µM
Cc1ccc(NC(=O)NC2C(=O)Nc3ccccc3N(C3CCOCC3)C2=O)cc1 (stereo not shown) [Compound 8]	> 50.1 µM

Consider the record given below.
INPUT: Kindly indicate its recorded EC50. Item: COc1ccc(CN2C(=O)C(N)C(=O)N(c3ccc(OC)cc3)c3ccccc32)cc1 (stereo not shown) [Compound 16]
OUTPUT: > 50.1 µM

---

Reported Tc CYP51 Hill is given for each of the following molecules.
Molecular target: Tc-CYP51 (Trypanosoma cruzi)
Sequence (Q7Z1V1 whole entry): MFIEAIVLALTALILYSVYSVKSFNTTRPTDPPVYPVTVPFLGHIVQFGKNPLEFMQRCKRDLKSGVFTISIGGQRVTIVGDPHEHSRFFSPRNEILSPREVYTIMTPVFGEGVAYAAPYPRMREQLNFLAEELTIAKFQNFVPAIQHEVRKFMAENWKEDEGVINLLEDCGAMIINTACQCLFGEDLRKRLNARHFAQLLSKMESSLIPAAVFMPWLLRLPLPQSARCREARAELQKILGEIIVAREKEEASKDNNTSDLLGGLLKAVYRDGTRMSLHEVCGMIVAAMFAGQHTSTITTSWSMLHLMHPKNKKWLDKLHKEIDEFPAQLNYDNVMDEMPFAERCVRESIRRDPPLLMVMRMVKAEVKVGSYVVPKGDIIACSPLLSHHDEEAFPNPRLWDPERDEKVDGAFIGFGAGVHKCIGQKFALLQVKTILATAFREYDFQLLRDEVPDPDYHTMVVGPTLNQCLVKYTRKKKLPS
Assay: T. cruzi sterol 14α-demethylase (CYP51) enzyme assay
Format: biochemical
Settings: individual replicate
Lab note: jot down the number only; don't add units.

COc1ccc(NC(=O)NC2C(=O)Nc3cccc(F)c3N(c3ccccc3)C2=O)cc1 (stereo not drawn)	1.3
COc1ccc(CN2C(=O)C(N)C(=O)N(c3ccc(OC)nc3)c3ccccc32)cc1 (stereo not drawn)	1.3
COc1ccc(CN2C(=O)C(N)C(=O)N(c3ccc(F)cc3)c3ccccc32)cc1 (stereo not drawn)	1.8
COc1ccc(CN2C(=O)C(N)C(=O)N(C3CC3)c3ccccc32)cc1 (stereo not drawn)	1.0
COc1ccc(NC(=O)NC2C(=O)Nc3ccccc3N(c3ccccc3)C2=O)cc1 (stereo not drawn)	1.1

INPUT: Supply recorded Tc CYP51 Hill for COc1ccc(CN2C(=O)C(N)C(=O)N(c3ccccc3)c3ccccc32)cc1 (stereo not drawn) here.
OUTPUT: 1.2

INPUT: Please supply the value of reported Tc CYP51 Hill for the item COc1cccc(N2C(=O)C(NC(=O)Nc3ccc(C)cc3)C(=O)Nc3ccccc32)c1 (stereo not drawn)
OUTPUT: 0.7

INPUT: Retrieve Tc CYP51 Hill measured for COc1ccc(CN2C(=O)C(N)C(=O)N(CC3CC(F)(F)C3)c3ccccc32)cc1 (stereo not drawn) and print it.
OUTPUT: 1.3

INPUT: Consider the molecule COc1ccc(N2C(=O)C(NC(=O)Nc3ccc(C)cc3)C(=O)Nc3ccccc32)cc1 (stereo not drawn) . State its measured Tc CYP51 Hill.
OUTPUT: 0.9

---

Assay: ChromLogD pH7.4 (chromatographic hydrophobicity index), PFI, LLE
Conditions: ChromLogDpH7.4 + no. aromatic rings
measured.property: PFI
Lab note: jot the number down without any unit.

COc1ccc(CN2C(=O)C(N)C(=O)N(CC3CC(F)(F)C3)c3ccccc32)cc1 (stereo not drawn)	6.2
COc1ccc(NC(=O)NC2C(=O)Nc3ccccc3N(c3ccccc3)C2=O)cc1 (stereo not drawn)	7.0
COc1ccc(CN2C(=O)C(N)C(=O)N(c3ccccc3)c3c(F)cccc32)cc1 (stereo not drawn)	7.3

INPUT: Return reported PFI. Input compound: COc1ccc(NC(=O)NC2C(=O)Nc3cccc(F)c3N(c3ccccc3)C2=O)cc1 (stereo not drawn)
OUTPUT: 7.2

INPUT: Please report the measured PFI for Cc1ccc(NC(=O)NC2CNc3ccccc3N(c3ccccc3)C2=O)cc1 (stereo not drawn)
OUTPUT: 8.4

INPUT: Entry COc1cccc(N2C(=O)C(NC(=O)Nc3ccc(C)cc3)C(=O)Nc3ccccc32)c1 (stereo not drawn) needs its PFI filled in; supply it.
OUTPUT: 7.8

INPUT: Give the reported value of PFI for this record: Cc1ccc(NC(=O)NC2CN(c3ccccc3)c3ccccc3NC2=O)cc1 (stereo not drawn)
OUTPUT: 8.7

INPUT: Return reported PFI. Input compound: COc1ccc(CN2C(=O)CC(=O)N(c3ccc(OC)cc3)c3ccccc32)cc1
OUTPUT: 8.1

INPUT: # return recorded PFI for entry CC(C)N(C(=O)CN1C(=O)C(N)C(=O)N(c2ccccc2)c2ccccc21)c1ccccc1 (racemic)
OUTPUT: 8.0

INPUT: Return PFI (reported value) for this compound: Cc1ccc(NC(=O)NC2C(=O)Nc3ccccc3N(C(C)C)C2=O)cc1 (stereo not drawn)
OUTPUT: 6.2

INPUT: Tell me measured PFI for Cc1ccc(NC(=O)NC2COc3ccccc3N(c3ccccc3)C2=O)cc1 (stereo not drawn) please.
OUTPUT: 9.1

INPUT: Answer with the recorded PFI of COc1ccc(CN2C(=O)C(N)C(=O)N(c3ccc(OC)cc3)c3ccccc32)cc1 (stereo not drawn) only.
OUTPUT: 7.2

INPUT: Given the compound COc1ccc(CN2C(=O)C(N)C(=O)N(c3ccc(OC)nc3)c3ccccc32)cc1 (stereo not drawn) , write its reported PFI.
OUTPUT: 6.8

INPUT: // fetch PFI given entry COc1ccccc1N1C(=O)C(NC(=O)Nc2ccc(C)cc2)C(=O)Nc2ccccc21 (stereo not drawn)
OUTPUT: 7.7

INPUT: Please report PFI for the following compound: COc1ccc(CN2C(=O)C(N)C(=O)N(c3ccc(F)cc3)c3ccccc32)cc1 (stereo not drawn)
OUTPUT: 7.4

INPUT: Return value of PFI for input Cc1ccc(NC(=O)NC2C(=O)Nc3ccccc3N(C3CCOCC3)C2=O)cc1 (stereo not drawn) , no commentary.
OUTPUT: 5.5

INPUT: Fill in reported PFI for this entry: COc1ccc(CN2C(=O)C(N)C(=O)N(c3ccccc3)c3ccccc32)cc1 (stereo not drawn)
OUTPUT: 7.1

INPUT: Specify measured PFI for COc1ccc(CN2C(=O)C(N)C(=O)N(C3CC3)c3ccccc32)cc1 (stereo not drawn) .
OUTPUT: 5.2

INPUT: Specify PFI for Cc1ccc(NC(=O)NC2C(=O)Nc3ccccc3N(c3ccccc3)C2=O)cc1 (stereo not drawn) and stop.
OUTPUT: 7.6

INPUT: // fetch PFI given entry COc1ccc(N2C(=O)C(NC(=O)Nc3ccc(C)cc3)C(=O)Nc3ccccc32)cc1 (stereo not drawn)
OUTPUT: 7.8

INPUT: Return PFI for the following compound: O=C(Nc1ccc(F)cc1)NC1C(=O)Nc2ccccc2N(c2ccccc2)C1=O (stereo not drawn)
OUTPUT: 7.4
